Recorded values, source PubChem BioAssay.

The entries below come with measured composite z-score values attached.
assayed_system: Albumin (Bos taurus) (UniProt P02769)
Sequence (P02769 whole entry, looked up): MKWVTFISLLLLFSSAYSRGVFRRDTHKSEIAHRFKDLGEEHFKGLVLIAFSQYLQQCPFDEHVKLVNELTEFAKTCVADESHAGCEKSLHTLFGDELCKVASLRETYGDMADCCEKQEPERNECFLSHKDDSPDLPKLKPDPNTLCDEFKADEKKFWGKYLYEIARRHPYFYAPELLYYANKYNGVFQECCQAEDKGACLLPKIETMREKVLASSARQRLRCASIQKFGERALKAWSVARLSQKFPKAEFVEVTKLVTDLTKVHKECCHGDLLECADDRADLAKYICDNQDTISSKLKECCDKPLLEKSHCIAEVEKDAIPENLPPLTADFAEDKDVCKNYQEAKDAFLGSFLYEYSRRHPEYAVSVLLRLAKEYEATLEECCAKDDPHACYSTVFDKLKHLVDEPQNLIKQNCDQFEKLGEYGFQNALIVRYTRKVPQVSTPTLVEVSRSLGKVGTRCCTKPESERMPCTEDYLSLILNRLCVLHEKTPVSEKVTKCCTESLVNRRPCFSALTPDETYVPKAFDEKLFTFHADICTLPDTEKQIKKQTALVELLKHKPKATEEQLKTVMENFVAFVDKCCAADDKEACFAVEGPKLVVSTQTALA
procedure_text: bovine serum albumin binders on microarray, profiling panel, artefact control for SMM control protein annotation, biochemical, small-molecule microarray, Alexa647 label, 635/667 nm fluorescence (AID 1118);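 further: score merges 667 nm emission intensity and signal-to-noise per printed compound spot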
setup_conditions: BSA-A647 binding, fluorescence 635 nm, higher = more signal
endpoint_name: composite z-score

• COC(=O)[C@@]1(CCC(=O)OC(C)(C)C)N=C(c2ccc(OCCCO)cc2)O[C@H]1c1ccccc1CN=[N+]=[N-] = -0.0515
• C[C@@H](OCc1ccccc1)C1NC(=O)[C@@]23C(=O)N[C@@H](Cc4ccccc4)C2[C@H](C)[C@@]2(C)O[C@H]2C3/C=C/C/C=C\CNC(=O)[C@H](Cc2ccccc2)NC1=O (some centres not stated) = 0.126
• CC(C)C[C@@H]1NC(=O)[C@H]2C[C@@H](C(=O)NCCCCCCNC(=O)CS)[C@@H](c3ccc(O)cc3)N2C1=O = 0.291
• O=C1N(Cc2ccccc2)c2ccccc2[C@H]2OC(c3ccc(OCCCO)cc3)=N[C@@]12Cc1ccccc1 = -0.465
• COc1ccccc1CN1C(=O)c2ccccc2[C@@H](C(=O)NCCCN(C)C)[C@@H]1c1ccc(CO)cc1 = 0.303
• CC1CC/C=C\[C@H]2OC34C=CCN(c5ccc(Cl)cc5)C(=O)[C@H]3N(CCCO)C(=O)[C@]4(C)C2C(=O)O1 (some centres not stated) = 0.784
• CCCCCN1CC=CC23O[C@@H]4C=CCOC(=O)[C@@H]4[C@H]2C(=O)N(CCCCCO)[C@@H]3C1=O (some centres not stated) = 0.994

====

The entries below come with measured z-score values attached.
procedure_text: MM1S myeloma cell viability, profiling panel, resazurin fluorescence, basal, 24 h, PK04 Diversity Set (AID 1174);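 further: MM1S multiple myeloma cell line; test concentration not given here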
setup_conditions: higher = more signal, called active from +8 up or from −8 down
endpoint_name: z-score

* COCCOC(=O)N1C(=O)[C@@]2(c3cc(C#CC4(O)CCCCCC4)ccc31)[C@H](c1ccc(OCCO)cc1)N1[C@H](c3ccccc3)[C@H](c3ccccc3)OC(=O)[C@H]1[C@@H]2C(N)=O | -3.25
* COc1ccc(C#Cc2ccc3c(c2)[C@]2(C(=O)N3)[C@H](C(=O)Nc3nc4ccccc4s3)[C@H]3C(=O)O[C@H](c4ccccc4)[C@H](c4ccccc4)N3[C@@H]2c2ccc(OCCO)cc2)cc1 | -0.625
* CC1CC/C=C\[C@H]2OC34C=CCN(c5ccc(Cl)cc5)C(=O)[C@H]3N(CCCO)C(=O)[C@]4(C)C2C(=O)O1 (some centres undefined) | -0.198
* C=CC(CO)NC(=O)OCC1c2ccccc2-c2ccccc21 (centres undefined) | 0.358

====

procedure_text: COS7 lysate on small-molecule microarray, probe aHis, 635 nm (AID 1123);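 further: z-score combines 667nm fluorescence intensity with signal-to-noise per printed compound spot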
setup_conditions: COS7 cell lysate, fluorescence, higher = more signal
endpoint_name: composite z-score

• COC(=O)[C@@H]1N=C(c2ccc(OCCCO)cc2)O[C@@H]1c1ccccc1CN=[N+]=[N-] = 1.18
• O=C1OCCC=C[C@H]2OC34C=CCN(c5ccc(Cl)cc5)C(=O)[C@H]3N(CCO)C(=O)[C@@H]4C12 (some centres undefined) = -0.387
• CN(C)CCCCNC(=O)[C@H]1C[C@H]2C(=O)NCC(=O)N2[C@H]1c1cccc(OCCO)c1 = 0.0949
• N#Cc1ccc(C(O)C2C=CC3C(=O)N(c4ccccc4)C(=O)C3N2Nc2ccc([N+](=O)[O-])cc2)cc1 (centres undefined) = 2.45
• CC(C)C[C@@H]1NC(=O)[C@H]2C[C@@H](C(=O)NCCCCCCNC(=O)CS)[C@@H](c3ccc(O)cc3)N2C1=O = 1.73
• C=CCN1C(=O)[C@]2(O[C@H](CCn3cc([C@H](O)c4ccccc4)nn3)[C@@H]([Si](C)(C)c3ccc(OC)cc3)[C@@H]2C)c2cc(N3C(=O)c4cccc5cccc3c45)ccc21 = 0.515
• CC=CC(O)C1C=CC2C(=O)N(C)C(=O)C2N1NC(=O)OC(C)(C)C (centres undefined) = 0.439
• CO[C@H]1O[C@H](CO)[C@@H](OC(=O)Nc2ccc(C(F)(F)F)cc2)[C@H](OC(=O)Nc2ccccc2-c2ccccc2)[C@@H]1OC(=O)Nc1ccccc1-c1ccccc1 = 2.21
• C=CCOC(=O)[C@H]1[C@@H]2C(=O)O[C@@H](c3ccccc3)[C@@H](c3ccccc3)N2[C@@H](c2ccc(OCCOC(=O)[C@H]3C[C@H]4C(=O)NCC(=O)N4[C@H]3c3ccc(O)cc3)cc2)[C@]12C(=O)Nc1ccc(I)cc12 = 0.737
• COC(=O)[C@@]1(Cc2ccc(OC)cc2)[C@H]2c3cc(C(=O)N(C)C)n(Cc4ccsc4Br)c3C[C@H]2CN1C(=O)c1ccccc1 = 1.65
• C#CCN(C/C=C/c1ccccc1)[C@H](CO[Si](C)(C)C(C)(C)C)c1ccccc1 = -0.0873
• CC(=O)NCCCC[C@@H]1NC(=O)[C@H]2C[C@@H](C(=O)NCCCCCC[N+](C)(C)C)[C@@H](c3ccc(O)cc3)N2C1=O = 2.2
• C=C(COC)/C(=C/C[C@H](OC(=O)c1ccncc1)c1cccc(OCCO)c1)c1cnc2ccccc2c1 = 1.21
• C=C(COC)/C(=C/C[C@H](OC(=O)c1ccncc1)c1ccc(OCCO)cc1)c1cc(C(=O)OC)ccc1OC = 1.39

====

assayed_system: Follistatin-related protein 3 (Homo sapiens) (UniProt O95633)
Sequence (O95633 whole entry, looked up): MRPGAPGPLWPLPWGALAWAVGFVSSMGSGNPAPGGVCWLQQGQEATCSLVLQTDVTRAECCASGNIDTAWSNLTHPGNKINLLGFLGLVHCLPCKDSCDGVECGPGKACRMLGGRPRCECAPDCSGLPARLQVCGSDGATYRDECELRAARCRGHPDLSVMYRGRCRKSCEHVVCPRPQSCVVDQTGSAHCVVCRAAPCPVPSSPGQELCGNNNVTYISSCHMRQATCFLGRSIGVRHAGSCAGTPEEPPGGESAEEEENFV
procedure_text: FSTL3 binders on small-molecule microarrays, primary screen, biochemical, small-molecule microarray, 635 nm fluorescence (AID 1105);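 further: score merges emission near 667 nm and signal to noise per printed spot across three slides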
setup_conditions: FSTL3 binding, higher = more signal
The entries below come with measured composite z-score values attached.
endpoint_name: composite z-score

* O=C1NC(=O)C2C1C=CC(C(O)c1cccc(O)c1)N2Nc1ccc(Cl)cc1Cl (stereo not given) | -0.358
* CCc1cccc(NC(=O)O[C@H]2[C@H](OC(=O)Nc3ccc4c(c3)OCO4)[C@H](OC(=O)Nc3ccc4c(c3)OCO4)[C@@H](OC)O[C@@H]2CO)c1 | 0.791
* C#CCN([C@H](/C=C/C1CC1)[C@@H](O)Cc1ccccc1)[C@@H](Cc1ccccc1)C(=O)OC | 0.232
* COc1ccc([Si](C)(C)[C@@H]2[C@@H](CC(=O)N(CCO)Cc3ccccc3)O[C@]3(C(=O)N(Cc4ccc(N5CCC5=O)cc4)c4ccccc43)[C@H]2C)cc1 | 0.953
* CCCCN1CC=CC23O[C@@H]4/C=C\CCC(C)OC(=O)C4[C@H]2C(=O)N(C(C)CO)[C@@H]3C1=O (stereo not given in full) | -0.719
* [N-]=[N+]=NCc1ccccc1C[C@]1(C(=O)NCc2ccccc2)N=C(c2ccc(OCCCO)cc2)O[C@H]1c1ccccc1CN=[N+]=[N-] | 0.0358
* COC(=O)c1c(CC[C@@H](CO)NC(=O)N[C@@H](Cc2ccccc2)Cn2cc(-c3cncn3C)nn2)oc(C(C)=O)c1C(=O)OC | 0.367
* [N-]=[N+]=NCc1ccccc1C[C@]1(C(=O)N2CCOCC2)N=C(c2ccc(OCCCO)cc2)O[C@H]1c1ccccc1CN=[N+]=[N-] | 0.217
* COCCOC(=O)N1C(=O)[C@@]2(c3cc(C#CCNC(N)=O)ccc31)[C@H](C(=O)NC[C@H](O)c1ccccc1)[C@H]1C(=O)O[C@H](c3ccccc3)[C@H](c3ccccc3)N1[C@@H]2c1ccc(OCCO)cc1 | 0.898
* C=CC[C@@]1(C(=O)O)N=C(c2ccc(OCCCO)cc2)O[C@@H]1c1ccccc1CN=[N+]=[N-] | 1.17
* C#CCN=C(N)N | 0.918
* CN(C)C(=O)[C@]1(Cc2ccccc2)N=C(c2ccc(OCCCO)cc2)O[C@@H]1c1ccccc1 | 0.289
* COc1ccc(C#Cc2ccc3c(c2)[C@]2(C(=O)N3)[C@H](c3ccc(OCCO)cc3)N3[C@H](c4ccccc4)[C@H](c4ccccc4)OC(=O)[C@H]3[C@@H]2C(=O)O)cc1 | 1.44
* COc1ccc(NN2C(C(O)c3ccc(OC)cc3)C=CC3C(=O)N(C4CCCCC4)C(=O)C32)cc1 (stereo not given) | 1.04
* COC(=O)[C@@]1(Cc2ccccc2)[C@H]2c3cc(C(=O)N4CCCC4)n(Cc4ccc(C(F)(F)F)nc4)c3C[C@H]2CN1C(=O)c1ccccc1 | 1.1

====

The entries below come with measured z-score values attached.
procedure_text: mitochondrial membrane potential change in A549 cells, profiling panel, cell-based, JC-1 fluorescence, basal, 24 h, 100 nL (AID 1138);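 further: A549 lung adenocarcinoma cells under basal conditions with no added stimulus; test concentration not given here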
setup_conditions: higher = more signal
endpoint_name: z-score

* CC(C)C[C@H]1NC(=O)[C@@H](C)NC(=O)[C@@]23C(=O)N[C@@H](Cc4ccccc4)C2[C@H](C)[C@@]2(C)O[C@H]2C3/C=C/C/C=C\CNC1=O (stereo not given in full) | -0.0228
* C=CC[C@]1(C(=O)NCc2ccccc2)COC(c2ccc(OCCCO)cc2)=N1 | 1.03
* CCCCCCc1nc(-c2ccc(OC)nc2)cc2c1[Si](C(C)C)(C(C)C)OC2 | -1.46
* C=C(COC)C(=O)CC[C@@H](OC(=O)c1cccnc1)c1cccc(OCCO)c1 | 0.525
* CCCC[C@@H](O)C1=C(COC)Cn2c(=O)n(-c3ccccc3)c(=O)n2[C@H]1CO | -0.239
* CCOC(=O)C1=CC[C@@H](c2ccccc2Cl)N(S(=O)(=O)c2ccc(C)cc2)[C@H]1c1cccc(OC)c1 | 0.0495
* O=c1cccc(-c2ccccc2C(F)(F)F)o1 | -0.074
* [N-]=[N+]=NCc1ccccc1C[C@]1(C(=O)NCc2ccccc2)N=C(c2ccc(OCCCO)cc2)O[C@H]1c1ccccc1CN=[N+]=[N-] | 0.064
* CC(C)CNC(=O)[C@@]1(C)c2ccccc2C(=O)N(Cc2cc(F)cc(C(F)(F)F)c2)[C@H]1c1ccc(CO)cc1 | 0.165
* O=C(NCC(F)(F)F)[C@@H]1c2ccccc2C(=O)N(CC23CC4CC(CC(C4)C2)C3)[C@H]1c1ccc(CO)cc1 | 0.588
* CN(C)C(=O)[C@@]1(CCS(=O)(=O)c2ccccc2)N=C(c2ccc(OCCCO)cc2)O[C@H]1c1ccccc1N=[N+]=[N-] | 0.371
* C[N+](C)(C)CCCC[C@@H]1NC(=O)[C@H]2C[C@@H](C(=O)NCCCCCNC(=O)CS)[C@@H](c3ccc(O)cc3)N2C1=O | 0.455
* COc1ccc(C#Cc2ccc3c(c2)[C@]2(C(=O)N3)[C@H](c3ccc(OCCO)cc3)N3[C@H](c4ccccc4)[C@H](c4ccccc4)OC(=O)[C@H]3[C@@H]2C(=O)O)cc1 | -2.54
* CN(C)CCCCNC(=O)[C@H]1C[C@H]2C(=O)N[C@@H](Cc3ccccc3)C(=O)N2[C@H]1c1cccc(OCCO)c1 | -0.0938
* CN1C(=O)[C@]2(CCS(=O)(=O)c3ccccc3)N=C(c3ccc(OCCCO)cc3)O[C@@H]2c2ccccc21 | 1.87
* COc1cccc(OC)c1C(=O)O[C@H]1[C@@H]2OC(=O)[C@H](Cc3cccc(Br)c3)C/C=C/C[C@@H](Cc3cccc(Br)c3)C(=O)O[C@H]2[C@@H](OC)O[C@@H]1CO | 1.27
* COc1ccc(NN2C(C(O)c3cc(C(F)(F)F)cc(C(F)(F)F)c3)C=CC3C(=O)N(C4CCCCC4)C(=O)C32)cc1 (stereo not given) | -0.822
* COC(=O)[C@@]1(Cc2ccccc2CN=[N+]=[N-])COC(c2ccc(OCCCO)cc2)=N1 | -0.408
* COC(=O)C(CC#Cc1ccc2c(c1)[C@]1(C(=O)N2)[C@H](c2ccc(O)cc2)N2[C@H](c3ccccc3)[C@H](c3ccccc3)OC(=O)[C@H]2[C@@H]1C(=O)N1CCc2cc(OC)c(OC)cc2C1)C(=O)OC | -0.654
* COCCOC(=O)N1C(=O)[C@@]2(c3cc(C#CCC(C(=O)OC)C(=O)OC)ccc31)[C@H](c1ccc(OCCO)cc1)N1[C@H](c3ccccc3)[C@H](c3ccccc3)OC(=O)[C@H]1[C@@H]2C(=O)N1CCCCCCC1 | -0.83
* NCCCC[C@@H]1NC(=O)[C@H]2C[C@@H](C(=O)O)[C@@H](c3cccc(OCCO)c3)N2C1=O | -1.44
* CCOC(=O)C1=CC[C@@H](c2ccccc2)N(S(=O)(=O)C[Si](C)(C)C)[C@H]1c1ccccc1 | -1.48
* C=CC[C@]1(C(=O)OC)N=C(c2ccc(OCCCO)cc2)O[C@H]1c1ccccc1N=[N+]=[N-] | -0.674
* C[C@H]1C2[C@H](Cc3ccccc3)NC(=O)[C@]23C(=O)NCC(=O)N2CCC[C@H]2C(=O)NC/C=C\C/C=C/C3[C@@H]2O[C@]12C (stereo not given in full) | 0.546
* COCCOC(=O)N1C(=O)[C@@]2(c3cc(C#CCCO)ccc31)[C@H](C(=O)N1CCc3cc(OC)c(OC)cc3C1)[C@H]1C(=O)O[C@H](c3ccccc3)[C@H](c3ccccc3)N1[C@@H]2c1ccccc1OCCO | -0.976
* CCCC[C@H]1OB(O)C[C@H]2C1=C(C)C[C@H]1C(=O)C=CC(=O)[C@H]12 | -0.353
* CN1C(=O)C2C=CC(C(O)c3ccc(-c4ccccc4)s3)N(Nc3ccccc3)C2C1=O (stereo not given) | 0.5
* COC(=O)[C@@]1(Cc2ccccc2)[C@@H]2[C@@H](CC(=O)[C@H]2CC(=O)C(=O)N(C)C)CN1C(=O)c1ccccc1 | 1.19
* CCCCNC(=O)c1ccc(C#C[Si](C)(C)C)c(OC(C)=O)c1 | -1.35
* CC(C)C(=C=CC[C@@H](O)c1ccc(OCCO)cc1)CCO | 0.451
